Values compiled from ChEMBL document CHEMBL4414672.

Can you tell me inhibition of growth at 10 µM for the items I'm about to list?
Test system: HCT-116
testSummary: Growth inhibition of human HCT116 cells at 10^-5 M incubated for 48 hrs by sulforhodamine B assay
Format: functional
conditionDescription: HCT-116, 48 h, read-out: GI
Record the result as a number with its unit.

N=C1Nc2c(sc3ccc(Cl)cc23)C(c2cccc(Br)c2)N1 (centres undefined) ... 3.22%
N#Cc1cnn(C2=Nc3c(sc4ccc(Cl)cc34)C(c3cccc([N+](=O)[O-])c3)N2)c1N (centres undefined) ... 5.22%
O=C1/C(=C\c2ccc3ccccc3c2)Sc2ccc(Cl)cc21 ... 6.88%
NNC1=Nc2c(sc3ccc(Cl)cc23)C(c2cccc([N+](=O)[O-])c2)N1 (centres undefined) ... -0.35%

Return reported inhibition of growth at 10 µM values for all items listed beneath this line.
1. O=C1Nc2c(sc3ccc(Cl)cc23)C(c2ccccc2O)N1 (centres undefined)
2. N=C1Nc2c(sc3ccc(Cl)cc23)C(c2ccccc2O)N1 (centres undefined)
3. O=C1/C(=C\c2ccccc2O)Sc2ccc(Cl)cc21
4. NC(=O)CSC1=Nc2c(sc3ccc(Cl)cc23)C(c2cccc([N+](=O)[O-])c2)N1 (centres undefined)
5. O=C1/C(=C\c2cccc([N+](=O)[O-])c2)Sc2ccc(Cl)cc21

["4.28%", "10.7%", "10%", "6.66%", "45.9%"]

====

Can you tell me inhibition of growth at 10 µM for the items I'm about to list?
Tested on: SN12C
testSummary: Growth inhibition of human SN12C cells at 10^-5 M incubated for 48 hrs by sulforhodamine B assay
Type: functional
conditionDescription: read-out: GI
Give bare numbers, in %.

// below: answered compounds
NC(=O)CSC1=Nc2c(sc3ccc(Cl)cc23)C(c2cccc([N+](=O)[O-])c2)N1 (stereo not drawn) ... 1.64
N#Cc1cnn(C2=Nc3c(sc4ccc(Cl)cc34)C(c3cccc([N+](=O)[O-])c3)N2)c1N (stereo not drawn) ... -7.06

Return reported inhibition of growth at 10 µM values for all items listed beneath this line.
1. O=C1/C(=C\c2cccc([N+](=O)[O-])c2)Sc2ccc(Cl)cc21
2. N=C1Nc2c(sc3ccc(Cl)cc23)C(c2cccc([N+](=O)[O-])c2)N1 (stereo not drawn)
3. S=C1Nc2c(sc3ccc(Cl)cc23)C(c2cccc(Br)c2)N1 (stereo not drawn)
4. N=C1Nc2c(sc3ccc(Cl)cc23)C(c2ccc3ccccc3c2)N1 (stereo not drawn)
5. O=C1CSC2=Nc3c(sc4ccc(Cl)cc34)C(c3ccc4ccccc4c3)N12 (stereo not drawn)
6. NNC1=Nc2c(sc3ccc(Cl)cc23)C(c2cccc([N+](=O)[O-])c2)N1 (stereo not drawn)

1: -12.1; 2: -19.7; 3: 2.82; 4: -25.1; 5: 9.96; 6: 1.02

====

Tested on: M14
testSummary: Growth inhibition of human M14 cells at 10^-5 M incubated for 48 hrs by sulforhodamine B assay
Type: functional
conditionDescription: M14, 48 h, read-out: GI
reportedMetric: inhibition of growth at 10 µM (%)
Numbers only, in %.

Return reported inhibition of growth at 10 µM values for all items listed beneath this line.
1. O=C1/C(=C\c2ccccc2O)Sc2ccc(Cl)cc21
2. O=[N+]([O-])c1cccc(C2NC(=S)Nc3c2sc2ccc(Cl)cc32)c1 (stereo not given)
3. O=C1SC2=Nc3c(sc4ccc(Cl)cc34)C(c3ccc4ccccc4c3)N2C1=O (stereo not given)
4. N=C1Nc2c(sc3ccc(Cl)cc23)C(c2ccc3ccccc3c2)N1 (stereo not given)
5. CCOC(=O)CSC1=Nc2c(sc3ccc(Cl)cc23)C(c2cccc([N+](=O)[O-])c2)N1 (stereo not given)

[0.22, 2.86, 7.5, -0.34, -3.62]

====

Can you tell me inhibition of growth at 10 µM for the items I'm about to list?
Tested on: NCI-H460
testSummary: Growth inhibition of human NCI-H460 cells at 10^-5 M incubated for 48 hrs by sulforhodamine B assay
Assay type: functional
conditionDescription: NCI-H460, 48 h, read-out: GI
Numbers only, in %.

// below: answered compounds
O=C1SC2=Nc3c(sc4ccc(Cl)cc34)C(c3ccc4ccccc4c3)N2C1=O (centres undefined) ... 4.51
O=C1CSC2=Nc3c(sc4ccc(Cl)cc34)C(c3cccc([N+](=O)[O-])c3)N12 (centres undefined) ... -3.7
O=C1/C(=C\c2ccccc2O)Sc2ccc(Cl)cc21 ... -8.83
O=C1Nc2c(sc3ccc(Cl)cc23)C(c2ccccc2O)N1 (centres undefined) ... 6.65

Return reported inhibition of growth at 10 µM values for all items listed beneath this line.
1. O=C1CC(=O)N(C2=Nc3c(sc4ccc(Cl)cc34)C(c3cccc([N+](=O)[O-])c3)N2)N1 (centres undefined)
2. O=C1/C(=C\c2ccc3ccccc3c2)Sc2ccc(Cl)cc21
3. Cc1cc(C)n(C2=Nc3c(sc4ccc(Cl)cc34)C(c3cccc([N+](=O)[O-])c3)N2)n1 (centres undefined)
4. O=C1Nc2c(sc3ccc(Cl)cc23)C(c2cccc([N+](=O)[O-])c2)N1 (centres undefined)
5. Oc1ccccc1C1NC(=S)Nc2c1sc1ccc(Cl)cc21 (centres undefined)
6. O=[N+]([O-])c1cccc(C2c3sc4ccc(Cl)cc4c3N=C3NN=CN32)c1 (centres undefined)
7. N=C1Nc2c(sc3ccc(Cl)cc23)C(c2ccc3ccccc3c2)N1 (centres undefined)

2.81
0.3
7.9
3.38
1.28
2.77
13.2

Return reported inhibition of growth at 10 µM values for all items listed beneath this line.
1. N=C1Nc2c(sc3ccc(Cl)cc23)C(c2cccc([N+](=O)[O-])c2)N1 (centres undefined)
2. O=C1/C(=C\c2cccc([N+](=O)[O-])c2)Sc2ccc(Cl)cc21
3. O=[N+]([O-])c1cccc(C2NC(N3CCOCC3)=Nc3c2sc2ccc(Cl)cc32)c1 (centres undefined)

[14.7, -5.14, 4.82]

====

System: 786-0
testSummary: Growth inhibition of human 786-0 cells at 10^-5 M incubated for 48 hrs by sulforhodamine B assay
Assay type: functional
conditionDescription: 786-0, 48 h, read-out: GI
Can you tell me inhibition of growth at 10 µM for the items I'm about to list?
Answers are plain numbers, in %.

// below: answered compounds
Cc1cc(C)n(C2=Nc3c(sc4ccc(Cl)cc34)C(c3cccc([N+](=O)[O-])c3)N2)n1 (stereo not given) ... -6.44
N#Cc1cnn(C2=Nc3c(sc4ccc(Cl)cc34)C(c3cccc([N+](=O)[O-])c3)N2)c1N (stereo not given) ... 1

Return reported inhibition of growth at 10 µM values for all items listed beneath this line.
1. O=C1Nc2c(sc3ccc(Cl)cc23)C(c2ccccc2O)N1 (stereo not given)
2. O=C1/C(=C\c2cccc([N+](=O)[O-])c2)Sc2ccc(Cl)cc21

1.65
-1.44

Return reported inhibition of growth at 10 µM values for all items listed beneath this line.
1. N=C1Nc2c(sc3ccc(Cl)cc23)C(c2cccc([N+](=O)[O-])c2)N1 (stereo not given)
2. N=C1Nc2c(sc3ccc(Cl)cc23)C(c2ccccc2O)N1 (stereo not given)
3. NNC1=Nc2c(sc3ccc(Cl)cc23)C(c2cccc([N+](=O)[O-])c2)N1 (stereo not given)
4. S=C1Nc2c(sc3ccc(Cl)cc23)C(c2ccc3ccccc3c2)N1 (stereo not given)
5. Oc1ccccc1C1NC(=S)Nc2c1sc1ccc(Cl)cc21 (stereo not given)
6. NC(=O)CSC1=Nc2c(sc3ccc(Cl)cc23)C(c2cccc([N+](=O)[O-])c2)N1 (stereo not given)

1. 16.5
2. -0.24
3. -3.52
4. 4.93
5. 6.17
6. -0.38

====

System: 786-0
testSummary: Growth inhibition of human 786-0 cells at 10^-5 M incubated for 48 hrs by sulforhodamine B assay
Assay type: functional
conditionDescription: 786-0, 48 h, read-out: GI
reportedMetric: inhibition of growth at 10 µM (%)
Answers are plain numbers, in %.

O=C1/C(=C\c2ccc3ccccc3c2)Sc2ccc(Cl)cc21 ... 0.49
O=[N+]([O-])c1cccc(C2NC(=S)Nc3c2sc2ccc(Cl)cc32)c1 (stereo not given) ... 1.48
O=C1CSC2=Nc3c(sc4ccc(Cl)cc34)C(c3cccc([N+](=O)[O-])c3)N12 (stereo not given) ... -7.37
CCOC(=O)CSC1=Nc2c(sc3ccc(Cl)cc23)C(c2cccc([N+](=O)[O-])c2)N1 (stereo not given) ... -2.24

Turning to the following compound.
# lookup: inhibition of growth at 10 µM of O=C1/C(=C\c2cccc(Br)c2)Sc2ccc(Cl)cc21
-3.61

====

System: IGROV-1
testSummary: Growth inhibition of human IGROV1 cells at 10^-5 M incubated for 48 hrs by sulforhodamine B assay
Format: functional
conditionDescription: IGROV-1, 48 h, read-out: GI
Classification field: MET = inhibition of growth at 10 µM at or over 20%; NOT MET = inhibition of growth at 10 µM under 20%.

O=C1CSC2=Nc3c(sc4ccc(Cl)cc34)C(c3ccc4ccccc4c3)N12 (stereo not given) ... NOT MET
O=C1SC2=Nc3c(sc4ccc(Cl)cc34)C(c3ccc4ccccc4c3)N2C1=O (stereo not given) ... MET
S=C1Nc2c(sc3ccc(Cl)cc23)C(c2cccc(Br)c2)N1 (stereo not given) ... MET
O=C1/C(=C\c2ccc3ccccc3c2)Sc2ccc(Cl)cc21 ... NOT MET

Query molecule follows.
Threshold query (inhibition of growth at 10 µM >= 20%) on O=C1Nc2c(sc3ccc(Cl)cc23)C(c2cccc([N+](=O)[O-])c2)N1 (stereo not given)
NOT MET
